These entries and their values trace back to patent US20250295799A1.

# assay_system: T1, human glypican-3 (GPC3) (human, UniProt P51654 25-554)
# T1 construct: Endogenous on JHH-7, JHH-5, HepG2 and NCI-H446 tumour cells, or transiently expressed on CHO-S cells from a pTT5 plasmid; also called hGPC3; huGPC3
# assay_method_text: flow cytometry on JHH-5 cells; antibody after 14 days in mouse plasma at 37 C
Below, each of the binders is paired with its reported Kd value.
Write it as a number; the unit nM goes unstated.

See these solved cases before continuing.
>  <binder>
H18L6_LC_G34K mAb, v40207 (antibody, human IgG1, kappa, V domains shown, Full-size IgG1/kappa) VH: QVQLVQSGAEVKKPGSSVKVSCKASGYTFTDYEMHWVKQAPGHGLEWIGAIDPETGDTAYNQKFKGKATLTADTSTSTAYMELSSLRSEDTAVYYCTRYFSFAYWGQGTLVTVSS VL: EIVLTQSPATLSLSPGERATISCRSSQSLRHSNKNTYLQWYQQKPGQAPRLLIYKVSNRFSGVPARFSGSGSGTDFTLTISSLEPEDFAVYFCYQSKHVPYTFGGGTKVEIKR

>  <unit_tag>
nM

>  <data_value>
0.26

$$$$
>  <binder>
H18L6_LC_G34D mAb, v40203 (antibody, human IgG1, kappa, V domains shown) VH: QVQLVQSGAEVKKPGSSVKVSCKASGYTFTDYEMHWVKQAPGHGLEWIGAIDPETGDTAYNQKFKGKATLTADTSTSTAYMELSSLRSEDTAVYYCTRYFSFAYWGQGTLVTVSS VL: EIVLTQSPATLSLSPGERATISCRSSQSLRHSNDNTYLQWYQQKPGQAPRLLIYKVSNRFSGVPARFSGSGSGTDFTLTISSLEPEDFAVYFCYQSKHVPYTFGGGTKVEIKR

>  <unit_tag>
nM

>  <data_value>
0.34

$$$$

Exercise: Provide one value: measured Kd of H18L6_LC_G34A mAb, v40212 (antibody, human IgG1, kappa, V domains shown, M3-H18L6 chains with the stated light chain point mutation, IgG1/kappa) VH: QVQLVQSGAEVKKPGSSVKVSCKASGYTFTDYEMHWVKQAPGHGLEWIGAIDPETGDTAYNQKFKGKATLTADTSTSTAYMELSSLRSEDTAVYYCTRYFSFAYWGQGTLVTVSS VL: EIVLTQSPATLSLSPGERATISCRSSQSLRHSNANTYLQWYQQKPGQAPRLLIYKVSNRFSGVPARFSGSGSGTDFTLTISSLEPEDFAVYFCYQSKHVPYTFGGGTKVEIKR
Solution: 0.23
